The measurements presented in this section are drawn from PubChem BioAssay (NCI).

Test system: SF-539 CNS
Test: NCI tumour cell line growth inhibition, 48 h
measurement-label: TGI

compound=CCN(CC)c1nc(N(C)C)c2ccccc2n1 target_entity="SF-539 CNS" assay_result="96.1 µM"
compound=N#Cc1nc(C#N)n(C(=O)c2ccccc2)c1NC(=O)c1ccccc1 target_entity="SF-539 CNS" assay_result="> 100 µM"
compound=O=[N+]([O-])c1cccnc1-n1cnc2ccccc21 target_entity="SF-539 CNS" assay_result="> 100 µM"
compound=COC(=O)c1c(-c2ccc(Cl)cc2)cc2c3ccccc3n(C)c2c1C(=O)OC target_entity="SF-539 CNS" assay_result="> 100 µM"
compound=Cc1ccc(-c2n[nH]c(=O)n2/N=C\c2ccccc2)cc1 target_entity="SF-539 CNS" assay_result="> 100 µM"
compound=NS(=O)(=O)c1ccc(NNc2c3ccccc3nc3c(C(=O)Nc4ccc(S(=O)(=O)Nc5ncccn5)cc4)cccc23)cc1 target_entity="SF-539 CNS" assay_result="> 25 µM"
compound="CC(C)C1(O)C(=O)N(c2c(F)c(F)c(F)c(F)c2F)C(=S)N1CCSc1ccccc1 (stereo unspecified)" target_entity="SF-539 CNS" assay_result="35.1 µM"
compound=CN1CCN(c2nc(-c3ccncc3)nc3sc4c(c23)CCCCCC4)CC1 target_entity="SF-539 CNS" assay_result="21 µM"
compound=Oc1ccc(Cl)cc1Cc1cc(Cl)ccc1O target_entity="SF-539 CNS" assay_result="13.8 µM"
compound=COc1cc(/C=C(\C#N)C(N)=C(C#N)C#N)cc(O)c1O target_entity="SF-539 CNS" assay_result="> 100 µM"
compound="O=C(CC1Sc2ccccc2NC1=O)Nc1ccc(Cl)cc1 (stereo unspecified)" target_entity="SF-539 CNS" assay_result="> 100 µM"
compound=COc1cc(NC(=O)Nc2cnc(Nc3ccc(N4CCOCC4)cc3)nc2Oc2cccc(OC)c2)cc(OC)c1 target_entity="SF-539 CNS" assay_result="1.75 µM"
compound=CN(C)C(=S)Oc1ccc2ccc(=O)oc2c1 target_entity="SF-539 CNS" assay_result="> 100 µM"
compound=CO[C@]1(CN2CCN3CCCC[C@@H]3C2)/C=C/C[C@H](C)[C@@H](C)S(=O)(=O)NC(=O)c2ccc3c(c2)N(C[C@@H]2CC[C@H]21)C[C@@]1(CCCc2cc(Cl)ccc21)CO3 target_entity="SF-539 CNS" assay_result="2.72 µM"
compound="CCOC(=O)c1cnccc1CC1(C#N)c2ccccc2C=CN1C(=O)c1ccccc1 (stereo unspecified)" target_entity="SF-539 CNS" assay_result="75.6 µM"
compound="C#CCN(Cc1ccc2nc(N)[nH]c(=O)c2c1)c1ccc(C(=O)NC(CCC(=O)O)C(=O)O)cc1 (stereo unspecified)" target_entity="SF-539 CNS" assay_result="> 100 µM"
compound=Cc1ccc(C(C)C)cc1NC(=O)Nc1ccc([N+](=O)[O-])cc1 target_entity="SF-539 CNS" assay_result="7.89 µM"
compound=COc1cnc2cc(C(=O)O)c3ccccc3c2c1 target_entity="SF-539 CNS" assay_result="> 100 µM"
compound="CCOC(=O)C(NC(=O)c1[nH]cnc1/N=N/N(C)C)C(C)C (stereo unspecified)" target_entity="SF-539 CNS" assay_result="> 100 µM"
compound="C/C=C1\\C(=O)OC2CCN3CCC(COC(=O)C(C)(O)C(C)C1O)C23 (stereo unspecified)" target_entity="SF-539 CNS" assay_result="> 100 µM"
compound="CC(=O)Oc1ccc2c(c1)CC[C@@H]1C2CC[C@]2(C)C(=O)NC(=O)CC12 (stereo partly specified)" target_entity="SF-539 CNS" assay_result="> 100 µM"
